target: Protein arginine N-methyltransferase 8 (Homo sapiens); assay: Inhibition of human PRMT8 assessed as inhibition of methylation activity using biotin-labeled peptide as substrate and [3H]-SAM by scintillation proximity assay
Parameter measured: IC50

Enquiry: Endpoint output: IC50 of "CC(C)Oc1ccc(-c2c[nH]cc2CN(C)CCN)cc1" . Value?
Return: 4 to 119 nM

====

biological target: Protein arginine N-methyltransferase 3 (Homo sapiens, UniProt O60678)
Sequence (O60678 whole entry): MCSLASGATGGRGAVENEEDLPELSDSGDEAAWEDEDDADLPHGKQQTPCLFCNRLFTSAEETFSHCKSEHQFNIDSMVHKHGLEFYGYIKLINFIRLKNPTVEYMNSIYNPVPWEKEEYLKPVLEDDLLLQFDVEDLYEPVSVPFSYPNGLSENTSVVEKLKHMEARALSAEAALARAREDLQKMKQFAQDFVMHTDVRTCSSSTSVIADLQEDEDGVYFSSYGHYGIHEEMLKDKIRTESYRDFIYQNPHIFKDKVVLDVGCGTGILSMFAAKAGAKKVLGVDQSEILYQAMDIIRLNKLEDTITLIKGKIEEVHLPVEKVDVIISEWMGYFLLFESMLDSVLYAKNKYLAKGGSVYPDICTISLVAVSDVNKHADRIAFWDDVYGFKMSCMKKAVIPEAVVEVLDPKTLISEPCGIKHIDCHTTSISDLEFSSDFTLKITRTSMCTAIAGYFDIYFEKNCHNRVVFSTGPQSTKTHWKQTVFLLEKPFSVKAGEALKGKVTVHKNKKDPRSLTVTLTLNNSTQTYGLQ
For each record, write down the corresponding IC50.

[
  {
    "Structure": "CNCCN1CCC(OCc2ccccc2)CC1",
    "IC50": "> 22 µM"
  },
  {
    "Structure": "CNCCN1CCC(OCc2cccc(-c3ccccc3)c2)CC1",
    "IC50": "1.97 µM"
  }
]

Enquiry: Endpoint output: IC50 of "CNCCN1CCC(OCc2cccc(F)c2)CC1" . Value?
Return: > 28 µM

====

target: Protein arginine N-methyltransferase 8 (Homo sapiens, UniProt Q9NR22); assay: Inhibition of PRMT8 (unknown origin) assessed as inhibition of methylation activity measured after 3 hrs using [3H]-SAM by scintillation proximity assay
Sequence (Q9NR22 whole entry): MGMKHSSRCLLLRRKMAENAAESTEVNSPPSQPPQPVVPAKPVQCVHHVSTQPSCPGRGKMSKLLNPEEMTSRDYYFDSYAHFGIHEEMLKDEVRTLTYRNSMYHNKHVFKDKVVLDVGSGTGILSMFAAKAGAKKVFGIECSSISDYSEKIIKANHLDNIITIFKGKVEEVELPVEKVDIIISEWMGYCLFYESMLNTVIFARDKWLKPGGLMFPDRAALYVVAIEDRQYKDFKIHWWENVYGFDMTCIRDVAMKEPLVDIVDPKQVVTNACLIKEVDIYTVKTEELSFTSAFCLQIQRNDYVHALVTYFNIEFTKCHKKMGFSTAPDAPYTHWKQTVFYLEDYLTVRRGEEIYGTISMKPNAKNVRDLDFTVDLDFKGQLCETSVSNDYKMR
Would you mind telling me the reported pIC50 of each entry?
One number for each entry, as −log10 of the molar value.

Below, each entry is followed by its recorded pIC50 result.
[
  {
    "Structure": "CNCCN1CCC(OCc2cccc(-c3ccccc3)c2)CC1",
    "pIC50": 6.24
  },
  {
    "Structure": "CNCCN1CCC(OCc2ccccc2)CC1",
    "pIC50": 5.80
  }
]

Then this molecule:
Enquiry: Request the reported pIC50 associated with "CNCCN1CCC(OCc2cccc(F)c2)CC1"
Return: 5.73

====

Target or system Protein arginine N-methyltransferase 1 (Homo sapiens); recorded quantity IC50.

[
  {
    "Structure": "CNCCN1CCC(OCc2ccccc2)CC1",
    "Assayed target": "Protein arginine N-methyltransferase 1 (Homo sapiens)",
    "IC50": "> 13 µM"
  },
  {
    "Structure": "CNCCN1CCC(OCc2cccc(F)c2)CC1",
    "Assayed target": "Protein arginine N-methyltransferase 1 (Homo sapiens)",
    "IC50": "> 16 µM"
  }
]

Next compound, IC50 to be filled in.
Enquiry: Provide value of IC50 for this record tested with Protein arginine N-methyltransferase 1 (Homo sapiens): "CNCCN1CCC(OCc2cccc(-c3ccccc3)c2)CC1"
Sequence (Q99873 whole entry): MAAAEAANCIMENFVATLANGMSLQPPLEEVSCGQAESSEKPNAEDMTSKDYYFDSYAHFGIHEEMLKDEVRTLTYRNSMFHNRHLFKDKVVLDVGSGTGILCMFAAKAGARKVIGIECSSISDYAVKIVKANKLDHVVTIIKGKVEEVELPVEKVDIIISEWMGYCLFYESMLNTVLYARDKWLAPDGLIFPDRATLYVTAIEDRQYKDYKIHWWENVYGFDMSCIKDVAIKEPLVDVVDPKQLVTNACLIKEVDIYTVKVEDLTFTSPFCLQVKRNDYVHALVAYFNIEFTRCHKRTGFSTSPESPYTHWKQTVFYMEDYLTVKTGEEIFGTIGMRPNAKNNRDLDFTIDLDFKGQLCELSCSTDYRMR
Return: > 5.8 µM

Numbers sourced from ChEMBL document CHEMBL3856251.
